Experimental system: T1, Zur (ScZur) wild type (Streptomyces coelicolor, UniProt Q9L2H5 1-139)
T1 sequence: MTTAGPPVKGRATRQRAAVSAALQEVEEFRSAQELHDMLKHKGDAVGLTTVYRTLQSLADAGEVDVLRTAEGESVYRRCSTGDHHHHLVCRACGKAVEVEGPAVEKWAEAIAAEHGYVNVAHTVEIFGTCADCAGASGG
Test name: ITC; 4.0 eq Zn2+ per Zur dimer; N=2.1 dimers per DNA; K=8.7e5 M-1; ITC: 20 mM HEPES pH 7.8, 150 mM NaCl, 0.5 mM TCEP, 25 C. EMSA: 20 mM Tris-HCl pH 7.8, 150 mM NaCl, 5 mM DTT, 0.1 mg/ml BSA, 5% glycerol, 0.1 ug poly(dI-dC) per
Condition info: protein: recombinant; chain copies: 2; label: 6-FAM in EMSA; blunt
pKd: −log10 of the molar value.

[
  {
    "Binder": "znuA 33 bp (zurbox site 1) (dsDNA) DNA 1: TCCGCTTGTTGACAACGGTTTCCATATTTGTTG DNA 2: CAACAAATATGGAAACCGTTGTCAACAAGCGGA",
    "pKd": 5.92
  }
]
